Some sequences, each annotated with its measured furin cleavage Z-score.
Biological target: furin, P09958;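 note: purified furin at 1:10 enzyme:substrate in 50 mM HEPES pH 7.5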
Sequence (P09958 whole entry): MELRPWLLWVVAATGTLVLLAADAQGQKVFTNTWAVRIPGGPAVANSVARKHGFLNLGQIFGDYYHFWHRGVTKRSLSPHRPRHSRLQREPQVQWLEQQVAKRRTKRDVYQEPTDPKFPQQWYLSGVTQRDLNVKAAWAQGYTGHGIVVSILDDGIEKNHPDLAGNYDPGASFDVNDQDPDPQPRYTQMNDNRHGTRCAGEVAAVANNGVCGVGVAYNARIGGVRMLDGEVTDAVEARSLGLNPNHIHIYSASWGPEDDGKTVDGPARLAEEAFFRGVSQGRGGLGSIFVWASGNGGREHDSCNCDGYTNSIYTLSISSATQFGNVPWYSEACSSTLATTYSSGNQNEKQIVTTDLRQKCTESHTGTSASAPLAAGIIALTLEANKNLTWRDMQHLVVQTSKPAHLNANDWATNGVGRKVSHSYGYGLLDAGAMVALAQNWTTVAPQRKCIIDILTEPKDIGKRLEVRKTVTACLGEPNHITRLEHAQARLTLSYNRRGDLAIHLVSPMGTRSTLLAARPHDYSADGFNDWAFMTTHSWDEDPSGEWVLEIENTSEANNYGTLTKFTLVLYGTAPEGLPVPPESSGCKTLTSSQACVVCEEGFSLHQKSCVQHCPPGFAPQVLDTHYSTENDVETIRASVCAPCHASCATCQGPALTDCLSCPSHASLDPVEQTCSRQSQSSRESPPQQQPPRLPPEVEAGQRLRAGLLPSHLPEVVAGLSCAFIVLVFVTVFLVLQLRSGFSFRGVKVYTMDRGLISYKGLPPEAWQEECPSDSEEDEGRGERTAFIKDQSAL
Test: furin cleavage Z-score vs untreated control; higher = more cleavage, active = 3.5 or more, inactive = 1 or less, 8 variable residues between constant flanks
Details: 7.5 min
This is one part of the list. The hit rate among all sequences tested is not known here.
Kindly provide the number alone.

CAKTLRTKRNAGNASASA [FS-1352] : 9.31
CAADLEVVTSAGNASASA [HC986] : 0.0893
CAVIVGRVVLAGNASASA [HC1001] : -0.946
CAALGINAVAAGNASASA [HC865] : 0.253
CAEVVTSIWVAGNASASA [HC2204] : -1.22

Kindly note the recorded furin cleavage Z-score for CAHIARALRNAGNASASA [FS-662] , which is 0.331

Kindly note the recorded furin cleavage Z-score for CASMSYSWTGAGNASASA [HC1371] , which is -1.4
